Target: hMAO-A (Homo sapiens)
Sequence (P21397 1-527): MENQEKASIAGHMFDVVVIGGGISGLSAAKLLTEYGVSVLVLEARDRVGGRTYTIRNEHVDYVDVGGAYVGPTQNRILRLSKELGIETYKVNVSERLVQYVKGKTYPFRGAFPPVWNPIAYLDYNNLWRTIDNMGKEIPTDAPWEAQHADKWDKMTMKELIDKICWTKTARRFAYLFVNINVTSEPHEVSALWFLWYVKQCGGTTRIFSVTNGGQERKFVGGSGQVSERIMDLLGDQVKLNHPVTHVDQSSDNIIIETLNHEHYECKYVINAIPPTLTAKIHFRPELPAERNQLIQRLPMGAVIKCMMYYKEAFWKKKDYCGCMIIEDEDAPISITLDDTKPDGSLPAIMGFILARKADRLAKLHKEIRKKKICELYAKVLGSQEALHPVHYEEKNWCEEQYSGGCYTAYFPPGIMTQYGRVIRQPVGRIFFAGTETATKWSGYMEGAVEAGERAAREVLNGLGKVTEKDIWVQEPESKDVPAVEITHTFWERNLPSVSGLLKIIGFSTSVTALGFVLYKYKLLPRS
Test: hMAO-A inhibitory activity, Amplex Red continuous fluorometric assay
Conditions: recombinant hMAO-A, p-tyramine substrate, mean SEM
IC50 for assorted compounds
Quick note: unit goes after the number.

>  <Compound>
O=C(/C=C/C=C/c1ccc2c(c1)OCO2)N1CCOCC1 [Compound 9]

>  <Experimental system>
hMAO-A (Homo sapiens)

>  <IC50>
22.2 µM

$$$$

// returns reported IC50 for input Cc1ccc(C(C)C)cc1OC(=O)/C=C/C=C/c1ccc2c(c1)OCO2 [Compound 17a]
32.3 µM

Also need O=C(/C=C/C=C/c1ccc2c(c1)OCO2)Nc1ccc(Br)cc1 [Compound 5] , thanks.
60.2 µM

Also need COc1cc(C=O)ccc1OC(=O)/C=C/C=C/c1ccc2c(c1)OCO2 [Compound 17b] , thanks.
30 µM

Also need O=C(/C=C/C=C/c1ccc2c(c1)OCO2)N1CCCCC1 [Piperine, reference compound] , thanks.
19 µM

Also need CC1CCC(C(C)C)C(OC(=O)/C=C/C=C/c2ccc3c(c2)OCO3)C1 (stereo not drawn) [Compound 11] , thanks.
33.7 µM

Also need O=C(/C=C/C=C/c1ccc2c(c1)OCO2)Oc1ccc2ccc(=O)oc2c1 [Compound 13] , thanks.
24.5 µM

Also need O=C(/C=C/C=C/c1ccc2c(c1)OCO2)Nc1cccc2ccccc12 [Compound 7] , thanks.
15.4 µM

Also need C=CCc1ccc(OC(=O)/C=C/C=C/c2ccc3c(c2)OCO3)c(OC)c1 [Compound 17c] , thanks.
16.1 µM

* * *

Selectivity index for assorted compounds
Biological target: hMAO-B (Homo sapiens, UniProt P27338)
Construct: purchased Sigma-Aldrich; host or cells: insect cells (BTI-TN-5B14), recombinant baculovirus
Sequence (P27338 1-520): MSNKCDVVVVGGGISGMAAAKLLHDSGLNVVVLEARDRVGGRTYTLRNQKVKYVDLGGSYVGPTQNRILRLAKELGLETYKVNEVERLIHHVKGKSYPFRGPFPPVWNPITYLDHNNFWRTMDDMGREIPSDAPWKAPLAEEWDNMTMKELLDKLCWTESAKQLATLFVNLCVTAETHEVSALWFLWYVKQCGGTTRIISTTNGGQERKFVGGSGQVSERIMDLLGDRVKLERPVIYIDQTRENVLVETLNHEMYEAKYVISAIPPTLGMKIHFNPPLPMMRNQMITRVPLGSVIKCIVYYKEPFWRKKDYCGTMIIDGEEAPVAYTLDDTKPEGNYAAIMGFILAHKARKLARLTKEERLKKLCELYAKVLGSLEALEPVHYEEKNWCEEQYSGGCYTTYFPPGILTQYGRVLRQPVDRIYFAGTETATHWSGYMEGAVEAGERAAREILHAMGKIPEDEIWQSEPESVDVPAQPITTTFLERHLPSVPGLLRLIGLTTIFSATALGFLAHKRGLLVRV
Assay: hMAO-B inhibitory activity, Amplex Red continuous fluorometric assay
Type: biochemical
Settings: IC50 (MAO-A)/IC50 (MAO-B)

// known answers, use as guide
>  <Compound>
O=C(/C=C/C=C/c1ccc2c(c1)OCO2)N1CCCCC1 [Piperine, reference compound]

>  <Observed value>
1.081

$$$$
>  <Compound>
CC1CCC(C(C)C)C(OC(=O)/C=C/C=C/c2ccc3c(c2)OCO3)C1 (centres unmarked)

>  <Observed value>
1.637

$$$$
>  <Compound>
O=C(/C=C/C=C/c1ccc2c(c1)OCO2)Nc1cccc2ccccc12

>  <Observed value>
0.294

$$$$
>  <Compound>
Cc1ccc(C(C)C)cc1OC(=O)/C=C/C=C/c1ccc2c(c1)OCO2 [Compound 17a]

>  <Observed value>
1.512

$$$$

// returns reported Selectivity index for input COc1cc(C=O)ccc1OC(=O)/C=C/C=C/c1ccc2c(c1)OCO2 [Compound 17b]
1.675
